testProtocol: Viability of FS non malignant fibroblastic cells, XTT test
Format: cell-based
assayConditions: FS cells (non-malignant fibroblastic cell line), Control DMSO = 100%, second FS column, read-out: percentage of viable cells, FS
readoutName: viability at 96 h, 5 µM (%)

INSERT INTO measurements (compound, unitsofmeasure, reported) VALUES
  ('CN1CCN(C(=O)C2CCN(c3nn4cc(-c5ccc(N6CCN(C)CC6)cc5)nc4s3)CC2)CC1', '%', 104),
  ('CC(C)c1ccc(-c2cn3nc(N4CCC(C(=O)N5CCN(C6CCN(C)CC6)CC5)CC4)sc3n2)cc1', '%', 39),
  ('Cc1c(-c2ccc(N3CCCCCC3)cc2)nc2sc(N3CCC(C(=O)N4CCN(C)CC4)CC3)nn12', '%', 94),
  ('CC(C)c1ccc(-c2cn3nc(N4CCC(C(=O)N(C)CCc5ccncc5)CC4)sc3n2)cc1', '%', 113),
  ('Cc1c(-c2ccc(-n3cccn3)cc2)nc2sc(N3CCC(C(=O)N4CCN(C)CC4)CC3)nn12', '%', 94),
  ('CC1CCCN(c2ccc(-c3cn4nc(N5CCC(C(=O)N6CCN(C)CC6)CC5)sc4n3)cc2)C1 (stereo not shown)', '%', 92),
  ('O=C(C1CCN(c2nn3cc(-c4ccc(Cl)cc4)nc3s2)CC1)N1CCCCC1CCN1CCOCC1 (stereo not shown)', '%', 81),
  ('Cc1c(-c2ccc(N3CCCCCCC3)cc2)nc2sc(N3CCC(C(=O)N4CCN(C)CC4)CC3)nn12', '%', 101),
  ('CN(C)CCNC(=O)CN(C)C(=O)C1CCN(c2nn3cc(-c4ccc(Cl)cc4)nc3s2)CC1', '%', 93),
  ('Cc1c(-c2ccc(N(C)C)cc2)nc2sc(N3CCC(C(=O)N4CCN(C)CC4)CC3)nn12', '%', 117),
  ('CC(C)c1ccc(-c2cn3nc(N4CCC(C(=O)N5CCN(c6ncccn6)CC5)CC4)sc3n2)cc1', '%', 91),
  ('O=C(C1CCN(c2nn3cc(-c4ccc(Cl)cc4)nc3s2)CC1)N1CCCN(c2ncccn2)CC1', '%', 94),
  ('Cc1ccc(C)n1CCN1CCN(C(=O)C2CCN(c3nn4cc(-c5ccc(Cl)cc5)nc4s3)CC2)CC1', '%', 96),
  ('Cc1ccc(C)n1CCN1CCN(C(=O)C2CCN(c3nn4cc(-c5ccc(C(C)C)cc5)nc4s3)CC2)CC1', '%', 93),
  ('CN1CCN(C(=O)C2CCN(c3nn4cc(-c5ccc(N(C)CCO)cc5)nc4s3)CC2)CC1', '%', 116),
  ('Cc1c(-c2ccc(N(C)CCO)cc2)nc2sc(N3CCC(C(=O)N4CCN(C)CC4)CC3)nn12', '%', 104),
  ('CN1CCC(N(C)C(=O)C2CCN(c3nn4cc(-c5ccc(Cl)cc5)nc4s3)CC2)CC1', '%', 69),
  ('CC(C)c1ccc(-c2cn3nc(N4CCC(C(=O)N5CCN(CC(=O)NCCN(C)C)CC5)CC4)sc3n2)cc1', '%', 88),
  ('CN1CCN(C(=O)C2CCN(c3nn4cc(-c5ccc(N6CCSCC6)cc5)nc4s3)CC2)CC1', '%', 95),
  ('CC(C)c1ccc(-c2cn3nc(N4CCC(C(=O)N5CCCC(CN6CCOCC6)C5)CC4)sc3n2)cc1 (stereo not shown)', '%', 105),
  ('CN1CCN(C(=O)CN2CCN(C(=O)C3CCN(c4nn5cc(-c6ccc(Cl)cc6)nc5s4)CC3)CC2)CC1', '%', 109),
  ('CN(CCc1ccncc1)C(=O)C1CCN(c2nn3cc(-c4ccc(Cl)cc4)nc3s2)CC1', '%', 111),
  ('CC(C)c1ccc(-c2cn3nc(N4CCC(C(=O)N5CCN(CCN(C)C)CC5)CC4)sc3n2)cc1', '%', 101),
  ('CN(C)CCNC(=O)CN1CCN(C(=O)C2CCN(c3nn4cc(-c5ccc(Cl)cc5)nc4s3)CC2)CC1', '%', 84),
  ('CC(C)c1ccc(-c2cn3nc(N4CCC(C(=O)N5CCN(c6ccccn6)CC5)CC4)sc3n2)cc1', '%', 92);
